system tested: T1, Gαq activated with aluminum fluoride (Gαq-GDP plus aluminum fluoride) (UniProt P50148 35-359)
T1 construct: Purified protein in the active state (GDP + AlF4); PDB 3OHM is cited only for the structure; also called active Gαq
T1 sequence (looked up): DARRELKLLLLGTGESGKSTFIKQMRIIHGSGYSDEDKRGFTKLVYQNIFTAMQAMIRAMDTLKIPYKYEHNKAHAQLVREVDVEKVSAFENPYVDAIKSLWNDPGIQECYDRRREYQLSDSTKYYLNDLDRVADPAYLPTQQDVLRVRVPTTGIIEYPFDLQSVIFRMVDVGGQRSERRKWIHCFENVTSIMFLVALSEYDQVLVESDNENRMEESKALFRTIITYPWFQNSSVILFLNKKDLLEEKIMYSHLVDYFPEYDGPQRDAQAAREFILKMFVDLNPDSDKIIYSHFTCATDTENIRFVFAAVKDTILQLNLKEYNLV
assay info: fluorescence polarization; Gαq activated with aluminum fluoride titrated into TAMRA-labeled peptide
pKd: −log10 of the molar value. Ends that are not written are not given here.
quantity measured: pKd

## Task Look up pKd for this binder: HQDYAEALINPIKHVSLMDQRARQL (also: TAMRA label, position not given here, also called labeled 25-mer; 25 residue peptide of PLC-β3) [TAMRA-25-mer (25-residue peptide spanning the entire helix-turn-helix of PLC-β3, labeled with TAMRA)]
## Result ~5.22

Data provenance: patent US20150218538A1
